optical density: recorded values
Target: human Fc (human)
Assay: ELISA, negative control
Answer with a number only, understood to be in OD.

Consider the worked cases shown below.
Inquiry: Report optical density for 372_G12 (antibody, V domains shown) VH: EVQLLESGGGLVQPGGSLRLSCAASGFTFDSYSMNWVRQAPGKGLEWVAGINYNGGYTGYADSVKGRFTISRDNSKNTLYLQMNSLRAEDTAVYYCARGANWHDTHLDYWGQGTLVTVSS VL: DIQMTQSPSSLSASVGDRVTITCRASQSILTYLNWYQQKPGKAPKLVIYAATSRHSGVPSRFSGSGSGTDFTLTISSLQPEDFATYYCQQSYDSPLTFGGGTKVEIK
Reply text: 0.439

Inquiry: Give the reported value of optical density for this record: 366_A02 (antibody, V domains shown) VH: EVQLLESGGGLVQPGGSLRLSCAASGFTFDSYGMNWVRQAPGKGLEWVASINYNSGYKGYADSVKGRFTISRDNSKNTLYLQMNSLRAEDTAVYYCARAANWHDTHLDYWGQGTLVTVSS VL: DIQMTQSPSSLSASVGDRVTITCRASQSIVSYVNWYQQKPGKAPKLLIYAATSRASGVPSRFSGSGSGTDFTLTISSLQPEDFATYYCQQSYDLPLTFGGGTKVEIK
Reply text: 0.336

Inquiry: Indicate its recorded optical density; the binder in question is 367_B04 (antibody, V domains shown) VH: EVQLLESGGGLVQPGGSLRLSCAASGFTFDSYSMNWVRQAPGKGLEWVSGINYNSGYKSYADSVKGRFTISRDNSKNTLYLQMNSLRAEDTAVYYCARGANWHDTHLDYWGQGTLVTVSS VL: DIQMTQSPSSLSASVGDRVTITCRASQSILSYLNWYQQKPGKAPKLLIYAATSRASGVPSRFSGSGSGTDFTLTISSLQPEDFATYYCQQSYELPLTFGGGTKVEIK
Reply text: 0.265

Next:
Inquiry: Please supply the value of reported optical density for the item 371_F11 (antibody, V domains shown) VH: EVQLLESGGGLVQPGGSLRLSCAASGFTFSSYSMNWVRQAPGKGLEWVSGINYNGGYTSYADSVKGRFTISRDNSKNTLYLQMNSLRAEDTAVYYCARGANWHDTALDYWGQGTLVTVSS VL: DIQMTQSPSSLSASVGDRVTITCRASQSIISYVNWYQQKPGKAPKLLIYAVTSRASGVPSRFSGSGSGTDFTLTISSLQPEDFATYYCQQSYDLPLTFGGGTKVEIK
Reply text: 0.331

Inquiry: // fetch optical density given entry 374_G10 (antibody, V domains shown) VH: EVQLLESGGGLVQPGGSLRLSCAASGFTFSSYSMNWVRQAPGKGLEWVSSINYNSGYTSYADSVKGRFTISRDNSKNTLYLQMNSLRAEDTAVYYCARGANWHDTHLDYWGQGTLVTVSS VL: DIQMTQSPSSLSASVGDRVTITCRASQSIVSYLNWYQQKPGKAPKLVIYAVTSRASGVPSRFSGSGSGTDFTLTISSLQPEDFATYYCQQSYDSPLTFGGGTKVEIK
Reply text: 0.173
